Examples of variants with documented self-cleavage follow.
B1: HDV Ribozyme (parent)
chain: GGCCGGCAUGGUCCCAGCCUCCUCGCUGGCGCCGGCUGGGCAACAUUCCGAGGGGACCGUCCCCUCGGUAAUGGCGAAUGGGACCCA

Variants of: B1
Method Notes: self-cleavage, relative activity (ratio to wild type); higher = more cleavage; co-transcriptional
API doc: respond with a numeric literal and nothing else, no unit.

GGCCGGCAUGGUCCCAGCCUCCUCGCUGGCGCCGACUGGGCAACAUUCCGAGGGGACCGUCCCCUCGGUAAUCGCGAAUGGGACCCA: 0.138
GGCCGGCAUGGUCCCUGCCUCCUCGCUGGCGCCGGCUGGGCAACAUUCCGAGGGGACCGUCCGCUCGGUAAUGGCGAAUGGGACCCA: 0.831
GGCCGGCAUGGUCCCAGCCUCCUCGCUGGCGCAGGCUGGGCAACAUUCCGAGGGGACCGUCCCCUCGGUAAUGGCGAAUGGGAACCA: 0.0811
GGCCGGCAUGGUCCCAGCCUCCUCGCUGGCGCCGGCUGGGCAUCACUCCGAGGGGACCGUCCCCUCGGUAAUGGCGAAUGGGACCCA: 0.383
GGCCGGCAUGGUCCCAGCCUCCUCGCUGGCGCCGGCUGGGCAACAUUCCGAGGGGCCCGUCCCCUCGGUAAUGGCGAAUCGGACCCA: 0.189
GGCCGGCAUGGUCCCAGCAUCCUCGCUGGCGCCGGCUGGGCAGCAUUCCGAGGGGACCGUCCCCUCGGUAAUGGCGAAUGGGACCCA: 0.0354
GGCCGGCAUGGUCCCAGCCUCCUCGCUGGCGCCGGCUGGGCAACAUUCCGAGGGUACCGUCCCCUCGGUAAUGGCGAACGGGACCCA: 0.395
GGCCGGCAUGGUCCCAGCCUCCCCACUGGCGCCGGCUGGGCAACAUUCCGAGGGGACCGUCCCCUCGGUAAUGGCGAAUGGGACCCA: 0.101
GGCCGGCAUGGUCCCAGCCUCCUCGCUGGCGCCGGCUGGGCAACAUUCCGACGGGACCCUCCCCUCGGUAAUGGCGAAUGGGACCCA: 0.987
GCCCGGCAUGGUCCCAGCCUCCUCGCUGGCGCCGGCUGGGCAACAUUCCGAGGGGACCGUCCCCUCGGUAAUGGAGAAUGGGACCCA: 0

Request: Give self-cleavage for GGCCGGCAUGGUCCCAGCCCCCUCUCUGGCGCCGGCUGGGCAACAUUCCGAGGGGACCGUCCCCUCGGUAAUGGCGAAUGGGACCCA
Result: 0.0415

Request: Give self-cleavage for GGCCGGCAUGGUCCCAGCCUCCUCGCUGGCGCCGGCUGGGCAACUUUCCGAGGGGACGGUCCCCUCGGUAAUGGCGAAUGGGACCCA
Result: 0.712

Request: Give self-cleavage for GGCCGGCAUGGUCCCAGCCUCCUCGCUGGCGCCGGCUGGGCAACAUUCCGAGGGGACCGUCCCCUCGGUACUGGCGAAUGGUACCCA
Result: 0.298

Request: Give self-cleavage for GGCCGGCAUGGUCCCAGCCUCCUCGCUGGCGCCGGCUGGCCAACAUUCCGAGGGGACCGUCCCCUCGGCAAUGGCGAAUGGGACCCA
Result: 0.158
